- PROCEDURE_TEXT: Volume of distribution in rat at 1 mg/kg, iv and 5 mg/kg, po
- Format: ADME, organism-based
- EXPERIMENTAL_PARAMETERS: in vivo
ATTRIBUTE_MEASURED: Vd (L/kg)

>>> result("COc1ccc(NC(=O)c2ccc(C(=N)N(C)C)cc2)c(C(=O)Nc2ccc(Cl)cn2)c1")
32.9
>>> result("COc1ccc(NC(=O)c2ccc(C(=N)N(C)C)cc2F)c(C(=O)Nc2ccc(Cl)cn2)c1")
26.5

---

- TARGET_DESC: UniProt P04070
- Sequence (P04070 43-197 limits assumed): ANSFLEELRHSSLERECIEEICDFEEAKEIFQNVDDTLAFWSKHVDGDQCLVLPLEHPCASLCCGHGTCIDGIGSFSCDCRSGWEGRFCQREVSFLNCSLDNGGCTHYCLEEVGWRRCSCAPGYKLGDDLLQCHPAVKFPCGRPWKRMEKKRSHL
- Sequence (P04070 212-461 limits assumed): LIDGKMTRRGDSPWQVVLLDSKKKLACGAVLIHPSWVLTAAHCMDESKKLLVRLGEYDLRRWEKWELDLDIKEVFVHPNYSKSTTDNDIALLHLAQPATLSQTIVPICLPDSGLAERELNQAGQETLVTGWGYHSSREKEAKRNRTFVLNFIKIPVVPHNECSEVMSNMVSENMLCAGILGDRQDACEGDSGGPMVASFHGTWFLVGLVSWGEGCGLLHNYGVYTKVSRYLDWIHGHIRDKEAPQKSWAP
- PROCEDURE_TEXT: Inhibition of activated anticoagulant protein C
// IC50 lookup, one value per entry

>>> result("COc1ccc(NC(=O)c2ccc(C(=N)N(C)C)cc2)c(C(=O)Nc2ccc(Cl)cn2)c1")
"> 10 µM"
>>> result("CN(C)C(=N)c1ccc(C(=O)Nc2ccc(Cl)cc2C(=O)Nc2ccc(Cl)cn2)cc1")
"> 10 µM"

In: Look up IC50: CN(C)C(=N)c1ccc(C(=O)Nc2ccc(Cl)cc2C(=O)Nc2ccc(Cl)cn2)c(F)c1
Out: > 10 µM

---

- PROCEDURE_TEXT: Fraction unbound in human plasma at 10 uM after 30 mins
- Format: ADME, cell-free
ATTRIBUTE_MEASURED: fraction unbound at 0.5 h, 10 µM

>>> result("COc1ccc(NC(=O)c2ccc(C(=N)N(C)C)cc2F)c(C(=O)Nc2ccc(Cl)cn2)c1")
0.634
>>> result("CN(C)C(=N)c1ccc(C(=O)Nc2ccc(Cl)cc2C(=O)Nc2ccc(Cl)cn2)cc1")
0.881
>>> result("COc1ccc(NC(=O)c2ccc(C(=N)N(C)C)cc2)c(C(=O)Nc2ccc(Cl)cn2)c1")
0.8

---

- PROCEDURE_TEXT: Half life in cynomolgus monkey at 0.1 mg/kg, iv and 1 mg/kg, po
- Assay type: ADME, organism-based, Macaca fascicularis
- EXPERIMENTAL_PARAMETERS: in vivo
ATTRIBUTE_MEASURED: half-life (h)

>>> result("CN(C)C(=N)c1ccc(C(=O)Nc2ccc(Cl)cc2C(=O)Nc2ccc(Cl)cn2)cc1")
19.4
>>> result("CN(C)C(=N)c1ccc(C(=O)Nc2ccc(Cl)cc2C(=O)Nc2ccc(Cl)cn2)c(F)c1")
22.8

---

// pIC50 lookup, one value per entry
- TARGET_DESC: UniProt P00747
- Sequence (P00747 97-580 limits assumed): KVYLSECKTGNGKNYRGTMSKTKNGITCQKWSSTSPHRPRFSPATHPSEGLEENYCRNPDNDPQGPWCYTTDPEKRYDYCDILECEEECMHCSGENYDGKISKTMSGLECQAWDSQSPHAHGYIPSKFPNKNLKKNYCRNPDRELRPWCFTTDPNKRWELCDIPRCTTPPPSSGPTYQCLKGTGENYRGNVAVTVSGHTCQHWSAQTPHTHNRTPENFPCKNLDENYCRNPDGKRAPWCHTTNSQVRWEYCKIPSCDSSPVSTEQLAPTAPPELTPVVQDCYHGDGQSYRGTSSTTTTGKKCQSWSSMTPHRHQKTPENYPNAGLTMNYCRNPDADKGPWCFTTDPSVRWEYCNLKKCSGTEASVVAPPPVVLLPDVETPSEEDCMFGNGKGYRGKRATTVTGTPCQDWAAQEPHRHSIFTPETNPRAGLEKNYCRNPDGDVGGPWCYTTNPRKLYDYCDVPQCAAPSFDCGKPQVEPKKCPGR
- Sequence (P00747 581-810 limits assumed): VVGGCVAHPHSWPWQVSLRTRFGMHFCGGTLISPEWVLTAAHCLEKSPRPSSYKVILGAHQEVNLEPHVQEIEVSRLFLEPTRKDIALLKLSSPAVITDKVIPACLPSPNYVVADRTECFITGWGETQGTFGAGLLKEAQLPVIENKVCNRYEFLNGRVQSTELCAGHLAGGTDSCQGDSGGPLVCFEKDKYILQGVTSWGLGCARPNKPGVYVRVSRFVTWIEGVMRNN
- PROCEDURE_TEXT: Inhibition of plasmin
pIC50: −log10 of the molar value.

>>> result("CN(C)C(=N)c1ccc(C(=O)Nc2ccc(Cl)cc2C(=O)Nc2ccc(Cl)cn2)c(F)c1")
"< 5.00"

Next up:
In: Look up pIC50: CN(C)C(=N)c1ccc(C(=O)Nc2ccc(Cl)cc2C(=O)Nc2ccc(Cl)cn2)cc1
Out: < 5.00

---

- PROCEDURE_TEXT: Volume of distribution in Beagle dog at 0.5 mg/kg, iv and 2.5 mg/kg, po
- Assay type: ADME, organism-based, Canis lupus familiaris
- EXPERIMENTAL_PARAMETERS: in vivo
ATTRIBUTE_MEASURED: Vd (L/kg)

A = COc1ccc(NC(=O)c2ccc(C(=N)N(C)C)cc2F)c(C(=O)Nc2ccc(Cl)cn2)c1
B = COc1ccc(NC(=O)c2ccc(C(=N)N(C)C)cc2)c(C(=O)Nc2ccc(Cl)cn2)c1
In: For the two items A and B , which reports the higher Vd value? Give the label of your selection.
Out: B
(B: 48.8 L/kg, A: 16.8 L/kg)

---

// half-life at 1 µM lookup, one value per entry
- PROCEDURE_TEXT: Metabolic stability in human liver S9 fraction at 1 uM by HPLC
- Type: ADME, subcellular

>>> result("C#Cc1ccc(NC(=O)c2cc(Cl)ccc2NC(=O)c2ccc(C(=N)N(C)C)cc2)nc1")
"> 2 h"

Next up:
In: Look up half-life at 1 µM: CSc1ccc(NC(=O)c2ccc(C(=N)N(C)C)cc2)c(C(=O)Nc2ccc(Cl)cn2)c1
Out: > 2 h

---

- PROCEDURE_TEXT: Inhibition of kallikrein
ATTRIBUTE_MEASURED: IC50 (µM)

>>> result("CN(C)C(=N)c1ccc(C(=O)Nc2ccc(Cl)cc2C(=O)Nc2ccc(Cl)cn2)cc1")
0.51
>>> result("COc1ccc(NC(=O)c2ccc(C(=N)N(C)C)cc2)c(C(=O)Nc2ccc(Cl)cn2)c1")
6.3

1 = CN(C)C(=N)c1ccc(C(=O)Nc2ccc(Cl)cc2C(=O)Nc2ccc(Cl)cn2)c(F)c1
2 = COc1ccc(NC(=O)c2ccc(C(=N)N(C)C)cc2F)c(C(=O)Nc2ccc(Cl)cn2)c1
In: For the two items 1 and 2 , which reports the higher IC50 value? Give the label of your selection.
Out: 2
(2: 7.2 µM, 1: 0.54 µM)

---

- PROCEDURE_TEXT: Clearance in Beagle dog at 0.5 mg/kg, iv and 2.5 mg/kg, po
- Type: ADME, organism-based, Canis lupus familiaris
- EXPERIMENTAL_PARAMETERS: in vivo
ATTRIBUTE_MEASURED: clearance (mL/min/kg)

>>> result("COc1ccc(NC(=O)c2ccc(C(=N)N(C)C)cc2F)c(C(=O)Nc2ccc(Cl)cn2)c1")
24.6
>>> result("COc1ccc(NC(=O)c2ccc(C(=N)N(C)C)cc2)c(C(=O)Nc2ccc(Cl)cn2)c1")
26.5

---

- PROCEDURE_TEXT: Volume of distribution in cynomolgus monkey at 0.75 mg/kg, iv and 7.5 mg/kg, po
- Type: ADME, organism-based, Macaca fascicularis
- EXPERIMENTAL_PARAMETERS: in vivo
ATTRIBUTE_MEASURED: Vd (L/kg)

>>> result("COc1ccc(NC(=O)c2ccc(C(=N)N(C)C)cc2F)c(C(=O)Nc2ccc(Cl)cn2)c1")
16.3
>>> result("COc1ccc(NC(=O)c2ccc(C(=N)N(C)C)cc2)c(C(=O)Nc2ccc(Cl)cn2)c1 [BETRIXABAN]")
13.4

---

- PROCEDURE_TEXT: Half life in Beagle dog at 0.5 mg/kg, iv and 2.5 mg/kg, po
- Type: ADME, organism-based, Canis lupus familiaris
- EXPERIMENTAL_PARAMETERS: in vivo
ATTRIBUTE_MEASURED: half-life (h)

1 = COc1ccc(NC(=O)c2ccc(C(=N)N(C)C)cc2F)c(C(=O)Nc2ccc(Cl)cn2)c1
2 = COc1ccc(NC(=O)c2ccc(C(=N)N(C)C)cc2)c(C(=O)Nc2ccc(Cl)cn2)c1
In: For the two items 1 and 2 , which reports the higher half-life value? Give the label of your selection.
Out: 2
(2: 21.2 h, 1: 7.9 h)

---

- PROCEDURE_TEXT: Oral bioavailability in cynomolgus monkey at 7.5 mg/kg
- Assay type: ADME, organism-based, Macaca fascicularis
- EXPERIMENTAL_PARAMETERS: in vivo
ATTRIBUTE_MEASURED: bioavailability (%)

>>> result("COc1ccc(NC(=O)c2ccc(C(=N)N(C)C)cc2F)c(C(=O)Nc2ccc(Cl)cn2)c1")
77.6
>>> result("COc1ccc(NC(=O)c2ccc(C(=N)N(C)C)cc2)c(C(=O)Nc2ccc(Cl)cn2)c1 [BETRIXABAN]")
58.7

---

- PROCEDURE_TEXT: AUC in cynomolgus monkey at 1 mg/kg, po
- Assay type: ADME, organism-based, Macaca fascicularis
- Set-up: dose 1 mg/kg, route oral
- EXPERIMENTAL_PARAMETERS: plasma
ATTRIBUTE_MEASURED: AUC (ng·h/mL)

1 = CN(C)C(=N)c1ccc(C(=O)Nc2ccc(Cl)cc2C(=O)Nc2ccc(Cl)cn2)c(F)c1
2 = CN(C)C(=N)c1ccc(C(=O)Nc2ccc(Cl)cc2C(=O)Nc2ccc(Cl)cn2)cc1
In: In terms of reported AUC, does 1 or 2 have the smaller number? Give the label of your selection.
Out: 2
(2: 512 ng·h/mL, 1: 1300 ng·h/mL)

---

- PROCEDURE_TEXT: AUC in cynomolgus monkey at 7.5 mg/kg, po
- Assay type: ADME, organism-based, Macaca fascicularis
- Set-up: dose 7.5 mg/kg, route oral
- EXPERIMENTAL_PARAMETERS: plasma
ATTRIBUTE_MEASURED: AUC (ng·h/mL)

P = COc1ccc(NC(=O)c2ccc(C(=N)N(C)C)cc2)c(C(=O)Nc2ccc(Cl)cn2)c1
Q = COc1ccc(NC(=O)c2ccc(C(=N)N(C)C)cc2F)c(C(=O)Nc2ccc(Cl)cn2)c1
In: In terms of reported AUC, does P or Q have the smaller number? Give the label of your selection.
Out: P
(P: 4180 ng·h/mL, Q: 6170 ng·h/mL)

---

- TARGET_DESC: Voltage-gated inwardly rectifying potassium channel KCNH2 (Homo sapiens)
- Sequence (Q12809 whole entry): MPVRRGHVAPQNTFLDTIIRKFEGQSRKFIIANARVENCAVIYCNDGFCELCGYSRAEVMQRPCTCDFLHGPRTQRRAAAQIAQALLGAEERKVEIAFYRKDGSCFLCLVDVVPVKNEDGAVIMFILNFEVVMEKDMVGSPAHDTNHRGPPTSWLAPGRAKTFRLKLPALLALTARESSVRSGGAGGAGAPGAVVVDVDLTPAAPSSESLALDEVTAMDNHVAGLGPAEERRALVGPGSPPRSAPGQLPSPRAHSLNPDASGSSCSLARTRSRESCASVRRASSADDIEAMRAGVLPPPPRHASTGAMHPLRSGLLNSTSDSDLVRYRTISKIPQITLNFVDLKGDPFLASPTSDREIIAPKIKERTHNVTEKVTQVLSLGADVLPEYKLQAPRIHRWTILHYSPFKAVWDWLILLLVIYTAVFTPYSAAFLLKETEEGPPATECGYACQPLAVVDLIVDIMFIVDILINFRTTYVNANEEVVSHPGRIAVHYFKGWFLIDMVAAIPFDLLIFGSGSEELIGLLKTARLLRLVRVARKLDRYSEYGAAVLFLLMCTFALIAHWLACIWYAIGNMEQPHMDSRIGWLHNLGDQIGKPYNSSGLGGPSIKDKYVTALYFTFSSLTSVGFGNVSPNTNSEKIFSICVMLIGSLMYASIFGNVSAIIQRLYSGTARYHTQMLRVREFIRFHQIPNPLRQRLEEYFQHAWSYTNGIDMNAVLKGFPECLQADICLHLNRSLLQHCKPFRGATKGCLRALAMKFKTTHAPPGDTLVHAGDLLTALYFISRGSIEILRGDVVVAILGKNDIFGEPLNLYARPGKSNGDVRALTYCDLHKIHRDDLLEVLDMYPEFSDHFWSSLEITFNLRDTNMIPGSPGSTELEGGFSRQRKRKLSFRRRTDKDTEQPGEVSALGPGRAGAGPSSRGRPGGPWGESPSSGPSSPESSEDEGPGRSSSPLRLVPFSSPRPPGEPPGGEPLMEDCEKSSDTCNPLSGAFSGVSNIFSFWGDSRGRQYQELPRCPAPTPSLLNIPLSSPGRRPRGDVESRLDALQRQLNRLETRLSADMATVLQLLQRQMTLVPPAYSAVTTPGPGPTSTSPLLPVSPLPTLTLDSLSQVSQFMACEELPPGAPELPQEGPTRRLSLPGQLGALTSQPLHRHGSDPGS
- PROCEDURE_TEXT: Inhibition of human ERG expressed in HEK293 cells by patch-clamp method
- Type: cell-based
// IC50 lookup, one value per entry
The reply should be a number in nM, with the unit left off.

>>> result("CN(C)C(=N)c1ccc(C(=O)Nc2ccc(Cl)cc2C(=O)Nc2ccc(Cl)cn2)cc1")
330

Next up:
In: Look up IC50: COc1ccc(NC(=O)c2ccc(C(=N)N(C)C)cc2F)c(C(=O)Nc2ccc(Cl)cn2)c1
Out: 4200
